- study.system: human calpain 9 (Homo sapiens)
- Construct: human calpain 9, residues 27-347, was over expressed in E. coli BL21 (DE3); hexa-histidine (N); made in house; host or cells: E. coli BL21 (DE3)
- Sequence (O14815 27-347): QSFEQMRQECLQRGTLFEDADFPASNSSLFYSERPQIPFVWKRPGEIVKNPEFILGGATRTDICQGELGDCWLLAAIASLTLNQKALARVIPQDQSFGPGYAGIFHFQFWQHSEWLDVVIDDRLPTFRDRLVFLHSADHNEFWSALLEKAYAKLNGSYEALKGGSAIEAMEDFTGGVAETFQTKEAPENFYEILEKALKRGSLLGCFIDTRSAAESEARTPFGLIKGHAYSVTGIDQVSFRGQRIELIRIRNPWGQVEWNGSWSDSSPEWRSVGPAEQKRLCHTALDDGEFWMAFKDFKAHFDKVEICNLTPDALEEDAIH
- procedure.text: Calpain binding: crystal structure interaction distances, human calpain 9
- study.conditions: polar interactions with human calpain 9
Listing of entries alongside the reported Interaction Distances R^12-His254.
reported.endpoint: Interaction Distances R^12-His254 (Å)

Cn1cc(C(=O)N[C@@H](Cc2ccccc2)C(=O)C(N)=O)c(-c2ccccc2)n1 [Compound 32] : 2.7
NC(=O)C(=O)[C@H](Cc1ccccc1)NC(=O)c1snnc1-c1ccccc1 [Compound 44] : 2.5
CCCC[C@H](NC(=O)c1oc(C)nc1-c1ccccc1)C(=O)C(N)=O [Compound 265] : 2.4
NC(=O)C(=O)[C@H](Cc1ccccc1)NC(=O)c1nsnc1-c1ccccc1 [Compound 72] : 2.6

---

Listing of entries alongside the reported pIC50.
- Test system: Calpain activity in SH-SY5Y cells
- procedure.text: SH-SY5Y + AMC fluorescence assay (Suc-LLVY-AMC substrate)
- Format: cell-based
- study.conditions: read-out: SH-SY5Y + AMC IC50
pIC50: −log10 of the molar value.
reported.endpoint: pIC50

COc1cncc(-c2nn(C)cc2C(=O)NC(Cc2ccccc2)C(=O)C(N)=O)c1 (centres unmarked) : < 4.60
NC(=O)C(=O)[C@H](Cc1ccccc1)NC(=O)c1conc1-c1cccc(F)c1 : < 4.60
Cc1ccc(F)c(-c2oncc2C(=O)NC(Cc2ccccc2)C(=O)C(N)=O)c1 (centres unmarked) : > 5.00
COc1cccc(-c2nn(C)cc2C(=O)NC(Cc2ccccc2)C(=O)C(N)=O)c1F (centres unmarked) : 4.60 to 5.00
NC(=O)C(=O)C(Cc1ccccc1)NC(=O)c1cn(C(F)F)nc1-c1cc(F)ccc1F (centres unmarked) : > 5.00
Cc1nc(-c2ccccc2)c(C(=O)N[C@@H](Cc2c[nH]c3ccccc23)C(=O)C(N)=O)o1 : > 5.00
CCCCC(NC(=O)c1nsnc1-c1ccccc1)C(=O)C(N)=O (centres unmarked) : < 4.60
NC(=O)C(=O)C(Cc1ccccc1)NC(=O)c1cn(C(F)F)nc1-c1ccc2cnccc2c1 (centres unmarked) : > 5.00
C#Cc1nccc(-n2nc(C)cc2C(=O)N[C@@H](Cc2ccccc2)C(=O)CF)n1 : < 4.60
NC(=O)C(=O)C(Cc1ccccc1)NC(=O)c1cn(C2CCCC2)nc1-c1ccccc1 (centres unmarked) : > 5.00
Cc1cc(C(=O)NC(Cc2ccccc2)C(=O)C(N)=O)n(-c2ccccn2)n1 (centres unmarked) : > 5.00
Cc1ccccc1-c1nc(C(F)(F)F)oc1C(=O)NC(Cc1ccccc1)C(=O)C(N)=O (centres unmarked) : 4.60 to 5.00
Cc1c(F)cccc1-c1nsnc1C(=O)NC(Cc1ccccc1)C(=O)C(N)=O (centres unmarked) : > 5.00
Cn1cc(C(=O)NC(Cc2ccccc2)C(=O)C(N)=O)c(-c2ccc3c(c2)OC(F)(F)O3)n1 (centres unmarked) : < 4.60
Cc1ccc(F)cc1-c1nn(C(F)F)cc1C(=O)NC(Cc1ccccc1)C(=O)C(N)=O (centres unmarked) : > 5.00
Cc1cc(C(=O)NC(Cc2ccccc2)C(=O)C(N)=O)n(-c2ccnc(C3CC3)n2)n1 (centres unmarked) : 4.60 to 5.00
O=CC(Cc1ccccc1)NC(=O)c1cnoc1-c1ccccc1 (centres unmarked) : < 4.60
